B1: HHH_rd1_0493 (parent)
chain: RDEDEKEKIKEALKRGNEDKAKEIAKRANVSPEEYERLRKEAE

# Variants of: B1
# methodDescription: folding stability dG (cDNA display proteolysis); higher = more stable
# setupConditions: PBS, room temperature
measuredQuantity: folding stability dG

Fill blank: measured folding stability dG of the variant RDEDEKEKIKEALKTGNEDKAKEIAKRANVSPEEYERLRKEAE [R15T] is ____. 2.81 kcal/mol

Entry RDEDEKEKIKEALKRGNEDKAKEIAKRANVSFEEYERLRKEAE [P32F] : reported folding stability dG = ? 2.76 kcal/mol

Tell me the measured folding stability dG of RDEDEKEKIKEALKRGNEDKAKEIAKRANVSPEEYERLKKEAE [R39K] , please. 2.99 kcal/mol

Source: the MegaScale stability set (Tsuboyama et al. 2023)
